# Measured On: human Thyroid hormone Receptor beta (TRb), THRB (gene 7068)
# Assay Notes: ATG_hTRb_XSP2: Attagene TRANS-FACTORIAL Multi-Species (XSP2) HepG2 Assay for human Thyroid hormone Receptor beta (TRb) (AID 2283840);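 also: actives raise reporter mRNA so potency reflects agonist-like gain of signal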
Inconclusive results are not listed. Calls of active or inactive are those of the source. The calls were made as follows: active = hit-call score of the fitted dose curve at least 0.9, where 1 is the maximum; inconclusive = response in the unintended direction; inactive = score below 0.9.
Measured Attribute: outcome

Compound	outcome
CCOP(=S)(OCC)Oc1ccc2c(C)c(Cl)c(=O)oc2c1	inactive
COc1ccc(C(=CC(=O)N2CCOCC2)c2ccc(Cl)cc2)cc1OC	inactive
CCC(CC)Nc1c([N+](=O)[O-])cc(C)c(C)c1[N+](=O)[O-]	inactive
C#CC(C)(C)NC(=O)c1cc(Cl)cc(Cl)c1	inactive

Here is the next item to consider.
(Q) Would you mind telling me what outcome value was observed for C#CCC1=C(C)C(OC(=O)C2C(C=C(C)C)C2(C)C)CC1=O (stereo not given) ?
(A) inactive

---

# Read-out: Monokine induced gamma interferon (MIG), CXCL9 (gene 4283)
# Assay Notes: BSK_3C_MIG: BioMAP Diversity Plus: 3C Assay for Monokine induced gamma interferon (MIG) Biomarker Activity (AID 2283021)
# Run Conditions: primary human endothelial cells (HUVEC); actives raise or lower the signal
# Experimental: BSK_3C is a cell-based, multiplexed-readout assay that uses umbilical vein endothelium, a human vascular primary cell, with measurements taken at 24 hours after chemical dosing in a 96-well plate.BSK_3C_MIG is an assay component measured in the BSK_3C assay. It measures MIG antibody related to regulation of gene expression using ELISA technology.Data from the assay component BSK_3C_MIG was analyzed into 1 assay endpoint. […]
Activity calls are given as the source filed them. How the source made its calls: active means hit-call score of the fitted dose curve at least 0.9, where 1 is the maximum; inactive means score below 0.9.
The categories you may choose from are active, inactive

Check out these entries, answers already filled in.
Molecule	Answer Label
CCOP(=S)(OCC)OC(Cl)C(Cl)(Cl)Cl (configuration not stated)	inactive
CN1COCN(Cc2cnc(Cl)s2)C1=N[N+](=O)[O-]	inactive
CC(C1CC1)C(O)(Cn1cncn1)c1ccc(Cl)cc1 (configuration not stated)	inactive
CC(C)[C@H](C(=O)O[C@H](C#N)c1cccc(Oc2ccccc2)c1)c1ccc(Cl)cc1	inactive
COP(=O)(OC)C(O)C(Cl)(Cl)Cl (configuration not stated)	inactive

(Q) Dear all, I need the recorded test outcome for `CCCOCC(=Nc1ccc(Cl)cc1C(F)(F)F)n1ccnc1` , thank you.
(A) active

(Q) So what was the verdict on C#CCC1=C(C)C(OC(=O)C2C(C=C(C)C)C2(C)C)CC1=O (configuration not stated) in this test?
(A) inactive

---

# Assay Notes: CEETOX_H295R_OHPROG: CeeTox H295R High-throughput Steroidogenesis Assay for OH-Progesterone (OHPROG) (AID 2283435)
# Run Conditions: actives raise or lower the signal
# Description: CEETOX_H295R is a cell-based, multiplexed-readout assay that uses H295R, a human adrenal gland cell line, with measurements taken at 48 hours after chemical dosing in a 96-well plate.CEETOX_H295R_OHPROG is one of 23 assay component(s) measured or calculated from the CEETOX_H295R assay. […] This assay endpoint, CEETOX_H295R_OHPROG, was analyzed with bidirectional fitting relative to DMSO as the negative control and baseline of activity. […]
Activity calls are given as the source filed them. The calls were made as follows: active = hit-call score of the fitted dose curve at least 0.9, where 1 is the maximum; inactive = score below 0.9.
Pick one and only one: true (1) = active, false (0) = inactive

Previously resolved entries follow.
Compound	Answer Label
CCOP(=S)(OCC)Oc1ccc([N+](=O)[O-])cc1	true (1)
C#CC(C)(C)NC(=O)c1cc(Cl)cc(Cl)c1	true (1)
CCOC(=O)COc1cc(-c2nn(C)c(OC(F)F)c2Cl)c(F)cc1Cl	false (0)
Nc1nc(N)nc(NC2CC2)n1	false (0)
FC(F)C(F)(F)OCC(Cn1cncn1)c1ccc(Cl)cc1Cl (stereo not given)	false (0)

(Q) Tell me the recorded outcome of this test for `CCC(=O)Nc1ccc(Cl)c(Cl)c1` .
(A) true (1)

---

# Read-out: Monocyte Chemoattractant Protein-1 (MCP1), CCL2 (gene 6347)
# Assay Notes: BSK_SAg_MCP1: BioMAP Diversity Plus: SAg Assay for Monocyte Chemoattractant Protein-1 (MCP1) Biomarker Activity (AID 2283090)
# Run Conditions: primary human HUVEC with PBMC; actives raise or lower the signal
# Method: BSK_SAg is a cell-based, multiplexed-readout assay that uses umbilical vein endothelium and peripheral blood mononuclear cells, a human vascular primary cell co-culture, with measurements taken at 24 hours after chemical dosing in a 96-well plate.BSK_SAg_MCP1 is an assay component measured in the BSK_SAg assay. It measures MCP-1 antibody related to regulation of gene expression using ELISA technology.Data from the assay component BSK_SAg_MCP1 was analyzed into 1 assay endpoint. […]
Calls of active or inactive are those of the source. The calls were made as follows: active = hit-call score of the fitted dose curve at least 0.9, where 1 is the maximum; inactive = score below 0.9.
Respond with a class label; see Yes = active, No = inactive

Compound	Answer Label
CC1(C(=O)Nc2ccc(O)c(Cl)c2Cl)CCCCC1	No
COP(=O)(NC(C)=O)SC (stereo unspecified)	No
COc1cccc(C(=O)NN(C(=O)c2cc(C)cc(C)c2)C(C)(C)C)c1C	No
C#CCC1=C(C)C(OC(=O)C2C(C=C(C)C)C2(C)C)CC1=O (stereo unspecified)	Yes

Now turn to the next compound.
(Q) // return assay outcome for `CCCSP(=O)(OCC)SCCC`
(A) No

---

# Assay Notes: CCTE_Shafer_MEA_dev_burst_duration_mean: CCTE's Neural Network Formation Assay for Mean Burst Duration, Shafer Lab (AID 2284045)
Active and inactive are the calls of the source. How the source made its calls: active means hit-call score of the fitted dose curve at least 0.9, where 1 is the maximum; inactive means score below 0.9.
Give your call using only these classes: active, inactive

Worked examples, 2 compounds total:
Compound	Answer Label
C#CCC1=C(C)C(OC(=O)C2C(C=C(C)C)C2(C)C)CC1=O (stereo unspecified)	inactive
CCOP(=S)(OCC)Oc1ccc([N+](=O)[O-])cc1	inactive

Now take the following compound into account.
(Q) Check the results log: what was the call for CCOP(=S)(Oc1cnc(C(C)(C)C)nc1)OC(C)C (stereo unspecified) ?
(A) inactive

---

# Assay Notes: CCTE_Shafer_MEA_dev_spike_duration_mean: CCTE's Neural Network Formation Assay for Mean Spike Duration, Shafer Lab (AID 2284051);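 also: mean network spike duration pooled as area under curve over DIV 5 to 12 recordings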
The source made the active and inactive calls. How the source made its calls: active means hit-call score of the fitted dose curve at least 0.9, where 1 is the maximum; inactive means score below 0.9.
Bench note: report the call from Y for active, N for inactive

Check out these entries, answers already filled in.
Compound	Answer Label
CC(=NC#N)N(C)Cc1ccc(Cl)nc1	N
CCOP(=S)(OCC)Oc1ccc([N+](=O)[O-])cc1	N
COP(=O)(NC(C)=O)SC (stereo not drawn)	N
CSC1=N[C@@](C)(c2ccccc2)C(=O)N1Nc1ccccc1	N
CCOP(=S)(OCC)SCCSCC	N

(Q) // param item: CCCSP(=O)(OCC)Oc1ccc(Br)cc1Cl (stereo not drawn) ; yields the recorded call
(A) N

(Q) Field: outcome | Entry: CC(Oc1cccc(Cl)c1)C(=O)O (stereo not drawn)
(A) N

(Q) Assay result, entry `CCOP(=O)(OCC)Oc1cc(C)nc(C(C)C)n1` — outcome?
(A) N

(Q) Could you kindly confirm the outcome this assay logged for C#CCC1=C(C)C(OC(=O)C2C(C=C(C)C)C2(C)C)CC1=O (stereo not drawn) ?
(A) N

(Q) Look up the recorded call for `CC(C)N(C(=O)SCC(Cl)=C(Cl)Cl)C(C)C` in this test.
(A) Y

(Q) What call does the record list for CC(C)=CC1C(C(=O)OCN2C(=O)C3=C(CCCC3)C2=O)C1(C)C (stereo not drawn) ?
(A) N

(Q) Could you check what this test reported for `CC(C)[C@H](C(=O)O[C@H](C#N)c1cccc(Oc2ccccc2)c1)c1ccc(Cl)cc1` ?
(A) Y

(Q) Please state the recorded outcome for this compound: `CC1=NNC(=O)N(/N=C/c2cccnc2)C1`
(A) N

(Q) Which result was noted for this compound in the test: CCOP(=O)(SC(C)CC)N1CCSC1=O (stereo not drawn)
(A) N

---

# Assay Notes: CCTE_Shafer_MEA_acute_burst_percentage_std: CCTE's Neural Acute Assay for Standard Deviation of Burst Percentage, Shafer Lab (AID 2284018);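 also: fitted in the negative direction so actives lower burst percentage SD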
Activity calls are given as the source filed them. Rule for the calls: active = hit-call score of the fitted dose curve at least 0.9, where 1 is the maximum; inactive = score below 0.9.
Measured Attribute: AC50

Example entries and their recorded answers appear below.
Mol	Measured Attribute	Val
CN(C)[C@@H]1C(=O)C(C(N)=O)=C(O)[C@@]2(O)C(=O)C3=C(O)c4c(O)cccc4[C@@](C)(O)[C@H]3[C@H](O)[C@@H]12	AC50	inactive
N#CSCSC#N	AC50	inactive
Cc1ccn2nc(S(=O)(=O)Nc3c(F)cccc3F)nc2n1	AC50	inactive
C[Si](Cn1cncn1)(c1ccc(F)cc1)c1ccc(F)cc1	AC50	4.31 µM (active)
C[N+]1(C)CCCCC1	AC50	inactive

Alright, here's another compound for you.
(Q) Find the recorded AC50 belonging to `CC1=NNC(=O)N(/N=C/c2cccnc2)C1` and report it.
(A) inactive

---

# Read-out: Peroxisomal acyl-coenzyme A oxidase 1 (ACOX1) gene, ACOX1 (gene 51)
# Assay Notes: LTEA_HepaRG_ACOX1: Life Technologies and Expression Analysis (LTEA) Assay for Peroxisomal acyl-coenzyme A oxidase 1 (ACOX1) gene using HepaRG (AID 2283467)
# Run Conditions: mRNA level, 48 h; actives raise or lower the signal
The source made the active and inactive calls. Rule for the calls: active = hit-call score of the fitted dose curve at least 0.9, where 1 is the maximum; inactive = score below 0.9.
Measured Attribute: AC50

Compound	AC50
CCOP(=S)(OCC)Oc1ccc2c(C)c(Cl)c(=O)oc2c1	inactive
C=C(C)[C@H]1Cc2c(ccc3c2O[C@@H]2COc4cc(OC)c(OC)cc4[C@@H]2C3=O)O1	11.7 µM (active)
N#CSCSC#N	inactive
CCc1cnc(C2=NC(C)(C(C)C)C(=O)N2)c(C(=O)O)c1 (stereo unspecified)	inactive
CCNc1nc(Cl)nc(NC(C)(C)C#N)n1	inactive

Consider the record given below.
(Q) # get_value(readout='AC50', item= `Nc1nc(N)nc(NC2CC2)n1` )
(A) inactive

Just for reference, PubChem BioAssay (EPA / NIEHS) is where these values come from.
